- Test system: murine DNA 5-C-MTase
- run.description: Methylation assay: methyl transfer from [methyl-3H]AdoMet to ODNs by DNA methyltransferase from Friend erythroleukemia cell nuclei
- Format: biochemical
- run.conditions: Table 4; single and double stranded constructs; average of 2 expts; background 1813
# DNA METHYLASE (FL) SUBSTRATE ACTIVITY, ACTIVITY (CPM) per entry
measurement.label: DNA METHYLASE (FL) SUBSTRATE ACTIVITY, ACTIVITY (CPM)

substance	readout.number
5' ATTGCGNATTNCGGATNCGCGATC 3' (5-methylcytosine at 7, 11, 17, further chemistry not given here) [M2, AS with 5-methylcytosine (N) at 7, 11, 17 (non-CpG sites)]	157027
5' ATTGCGCATTCCGGATCCGCGATC 3' (chemistry not given here) [AS, unmethylated antisense single-stranded 24mer ODN]	1936
3' TAACGCGTAAGGCCTAGGCGCTAG 5' (chemistry not given here; listed 3' to 5') [unmethylated sense single-stranded 24mer ODN]	1598
5' ATTGNGCATTCNGGATCNGNGATC 3' (5-methylcytosine at 5, 12, 18, 20, further chemistry not given here) [M1, AS with 5-methylcytosine (N) at 5, 12, 18, 20 (all CpG sites)]	1373

====

- Test system: murine DNA 5-C-MTase
- run.description: Methylation assay: methyl transfer from [methyl-3H]AdoMet to ODNs by DNA methyltransferase from Friend erythroleukemia cell nuclei
- Type: biochemical
- run.conditions: Table 10; ss ODNs with 5 mC and 5 FC substitutions

substance	RATE (rate of methylation relative to A)
5' ATTGCGCATTCCGGATCCGCGATC 3' (chemistry not given here) [AS, unmethylated antisense single-stranded 24mer ODN]	1
5' ATTGCGNATTCCGGATCRGCGATC 3' (5-methylcytosine at 7, 5-fluorocytosine at 18, further chemistry not given here) [ASM7 F18, AS with 5-methylcytosine (N) at 7 and 5-fluorocytosine (R) at 18]	3.2
5' ATTGCGNATTNCGGATNCGCGATC 3' (5-methylcytosine at 7, 11, 17, further chemistry not given here) [M2, AS with 5-methylcytosine (N) at 7, 11, 17 (non-CpG sites)]	128
5' ATTGCGNATTCCGGATCCGCGATC 3' (5-methylcytosine at 7, further chemistry not given here) [ASM7, ODN A (AS) with 5-methylcytosine (N) at position 7]	130
